# Test system: DNA topoisomerase 1 (Bos taurus)
# Procedure details: Concentration that produces 50% DNA cleavage mediated by DNA topoisomerase I; neg= negative is no enzyme mediated DNA cleavage at the highest conc tested at 50 uM
Metric: CC50

CC[C@]1(O)c2cc3n(c(=O)c2COC1O)Cc1cc2ccccc2nc1-3 (some centres not stated) | Negative
O=c1c2cocc2c(O)c2n1Cc1cc3ccccc3nc1-2 | Negative
CC[C@@]1(OC(C)=O)C(=O)OCc2c1cc1n(c2=O)Cc2cc3ccccc3nc2-1 | Negative
CC[C@H]1C(=O)OCc2c1cc1n(c2=O)Cc2cc3ccccc3nc2-1 | Negative
O=C1OCc2c1cc1n(c2=O)Cc2cc3ccccc3nc2-1 | Negative
CCC1OC(=O)c2c1cc1n(c2=O)Cc2cc3ccccc3nc2-1 (configuration not stated) | Negative
CC[C@@]1(O)C(=O)NCc2c1cc1n(c2=O)Cc2cc3ccccc3nc2-1 | Negative
